Biological target: FXR (Homo sapiens)
Sequence (Q96RI1 1-486): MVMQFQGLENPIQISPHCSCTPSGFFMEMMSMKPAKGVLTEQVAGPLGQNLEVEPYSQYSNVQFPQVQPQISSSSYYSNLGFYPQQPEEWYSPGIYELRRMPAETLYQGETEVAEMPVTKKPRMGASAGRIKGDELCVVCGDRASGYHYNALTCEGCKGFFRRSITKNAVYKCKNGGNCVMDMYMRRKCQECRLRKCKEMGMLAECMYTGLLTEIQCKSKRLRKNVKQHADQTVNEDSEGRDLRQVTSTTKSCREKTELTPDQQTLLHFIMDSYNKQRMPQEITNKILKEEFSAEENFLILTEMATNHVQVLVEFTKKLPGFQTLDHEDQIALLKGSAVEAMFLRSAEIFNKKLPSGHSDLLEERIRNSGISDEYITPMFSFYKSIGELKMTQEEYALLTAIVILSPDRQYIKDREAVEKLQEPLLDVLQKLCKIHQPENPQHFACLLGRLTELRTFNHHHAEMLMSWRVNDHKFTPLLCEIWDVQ
Sequence (P19793 1-462 partner): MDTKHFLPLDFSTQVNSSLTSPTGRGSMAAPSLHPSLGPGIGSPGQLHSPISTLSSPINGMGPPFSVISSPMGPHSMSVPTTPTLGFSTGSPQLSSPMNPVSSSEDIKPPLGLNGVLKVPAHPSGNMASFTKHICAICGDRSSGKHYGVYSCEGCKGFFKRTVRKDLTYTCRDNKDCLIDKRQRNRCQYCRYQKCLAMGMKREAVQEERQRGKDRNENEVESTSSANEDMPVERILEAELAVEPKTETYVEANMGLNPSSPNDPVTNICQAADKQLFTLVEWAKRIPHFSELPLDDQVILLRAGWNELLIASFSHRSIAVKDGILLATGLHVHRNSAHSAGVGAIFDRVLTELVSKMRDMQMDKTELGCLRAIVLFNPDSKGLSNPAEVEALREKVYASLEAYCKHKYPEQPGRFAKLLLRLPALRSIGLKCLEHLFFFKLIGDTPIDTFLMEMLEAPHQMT
Experiment: In Vitro FXR Assay (TK): TK-ECRE-luc reporter in transfected CV-1 cells
Settings: CV-1 cells transfected with hFXR, hRXR, 18 h incubation, luminescence
Measured parameter: EC50

In the examples that follow, each entry is paired with its recorded EC50.
Noted for COC(=O)/C=C/c1cccc(N(Cc2ccc(-c3cncs3)cc2)C(=O)C2CCCCC2)c1 [compound 69] : its EC50 reads 1000 to 10000 nM

Noted for COC(=O)/C=C/c1cccc(N(Cc2ccc(-c3ccc(N(C)C)c(F)c3)cc2)C(=O)C2CCCCC2)c1 [compound 73] : its EC50 reads ≤ 1000 nM

Noted for COC(=O)/C=C/c1cccc(N(Cc2ccc(-c3ccc4c(c3)OCO4)cc2)C(=O)C2CCCCC2)c1 [62.9] : its EC50 reads ≤ 1000 nM

Noted for CN(C)c1ccc(-c2ccc(CN(C(=O)C3CCCCC3)c3cccc(/C=C/C(=O)O)c3)cc2)cc1 [compound 88] : its EC50 reads > 10000 nM

Further cases:
Noted for COC(=O)/C=C/c1cccc(N(Cc2ccc(-c3ccc(S(C)(=O)=O)c(F)c3)cc2)C(=O)C2CCCCC2)c1 [75.7] : its EC50 reads > 10000 nM

Noted for COC(=O)/C=C/c1cccc(N(Cc2ccc(-c3ccc(N(C)C)cc3)cc2)C(=O)c2ccc(O)cc2)c1 [13.21] : its EC50 reads ≤ 1000 nM

Noted for COC(=O)/C=C/c1cccc(N(Cc2ccc(-c3ccc(N(C)C)cc3)cc2)C(=O)C2CCSCC2)c1 [13.9] : its EC50 reads ≤ 1000 nM

---

Target: UniProtKB Q96RI1
Experiment: In Vitro FXR Assay (TK): TK-ECRE-luc reporter in transfected CV-1 cells
Settings: CV-1 cells transfected with hFXR, hRXR, 18 h incubation, luminescence
In this section we review reported EC50 values for a set of molecules.

In the examples that follow, each entry is paired with its recorded EC50.
The molecule `COC(=O)/C=C/c1cccc(N(Cc2ccc(-c3ccc4cnoc4c3)cc2)C(=O)C2CCCCC2)c1` on UniProtKB Q96RI1: EC50 was > 10000 nM

The molecule `COC(=O)/C=C/c1cccc(N(Cc2ccc(-c3ccc(N(C)C)cc3)cc2)C(=O)C2CCC(=O)CC2)c1` on UniProtKB Q96RI1: EC50 was ≤ 1000 nM

The molecule `COC(=O)/C=C/c1cccc(N(Cc2ccc(N(C)Cc3ccccc3)cc2)C(=O)C2CCCCC2)c1` on UniProtKB Q96RI1: EC50 was > 10000 nM

Moving on to another molecule below.
The molecule `COC(=O)/C=C/c1cccc(N(Cc2ccc(-c3cccc(F)c3)cc2)C(=O)C2CCCCC2)c1` on UniProtKB Q96RI1: EC50 was 1000 to 10000 nM

---

In this section we review reported pEC50 values for a set of compounds.
Molecular target: FXR (Homo sapiens, UniProt Q96RI1)
Sequence (Q96RI1 1-486): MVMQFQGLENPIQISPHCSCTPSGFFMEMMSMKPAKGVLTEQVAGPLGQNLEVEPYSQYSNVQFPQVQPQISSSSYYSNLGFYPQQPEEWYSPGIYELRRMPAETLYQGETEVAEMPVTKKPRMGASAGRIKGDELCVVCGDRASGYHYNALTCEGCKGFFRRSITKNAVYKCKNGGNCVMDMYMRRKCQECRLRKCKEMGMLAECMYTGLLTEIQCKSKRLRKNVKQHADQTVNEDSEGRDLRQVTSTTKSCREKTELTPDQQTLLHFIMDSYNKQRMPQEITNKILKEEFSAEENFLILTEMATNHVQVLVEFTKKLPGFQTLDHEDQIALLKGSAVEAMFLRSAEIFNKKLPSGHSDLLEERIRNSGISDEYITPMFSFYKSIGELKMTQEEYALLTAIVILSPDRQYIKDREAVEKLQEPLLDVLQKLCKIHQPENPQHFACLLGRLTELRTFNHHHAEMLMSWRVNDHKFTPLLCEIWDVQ
Sequence (P19793 1-462 partner): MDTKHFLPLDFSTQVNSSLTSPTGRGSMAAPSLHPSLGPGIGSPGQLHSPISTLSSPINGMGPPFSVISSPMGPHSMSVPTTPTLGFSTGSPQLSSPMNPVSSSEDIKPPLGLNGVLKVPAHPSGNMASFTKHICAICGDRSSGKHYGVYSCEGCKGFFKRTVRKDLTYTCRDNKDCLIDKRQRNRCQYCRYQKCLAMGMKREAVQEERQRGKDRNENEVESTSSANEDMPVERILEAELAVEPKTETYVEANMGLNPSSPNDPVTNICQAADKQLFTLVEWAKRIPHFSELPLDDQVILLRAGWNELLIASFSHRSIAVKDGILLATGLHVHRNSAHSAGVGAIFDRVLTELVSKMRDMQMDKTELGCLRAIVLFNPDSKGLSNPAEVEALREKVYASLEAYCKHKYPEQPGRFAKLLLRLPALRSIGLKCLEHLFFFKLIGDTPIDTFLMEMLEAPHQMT
Assay: In Vitro FXR Assay (TK): TK-ECRE-luc reporter in transfected CV-1 cells
Conditions: CV-1 cells transfected with hFXR, hRXR, 18 h incubation, luminescence
pEC50: −log10 of the molar value.

In the examples that follow, each entry is paired with its recorded pEC50.
Noted for `COC(=O)/C=C/c1cccc(N(Cc2cccc3ccccc23)C(=O)C2CCCCC2)c1` : its pEC50 reads < 5.00

Noted for `COC(=O)/C=C/c1cccc(N(Cc2ccc(-c3ccc(OC)c(C)c3)cc2)C(=O)c2ccncc2)c1` : its pEC50 reads 5.00 to 6.00

Noted for `COC(=O)/C=C/c1cccc(N(Cc2ccc(-c3ccc(OC)c(C)c3)cc2)C(=O)C2CCN(C(C)=O)CC2)c1` : its pEC50 reads 5.00 to 6.00

Moving on to another compound below.
Noted for `CCc1cc(CN(C(=O)C2CCCCC2)c2cccc(/C=C/C(=O)OC)c2)ccc1-c1ccc(N(C)C)cc1` : its pEC50 reads 5.00 to 6.00

---

Biological target: FXR (Homo sapiens, UniProt Q96RI1)
Assay: In Vitro FXR Assay (TK): TK-ECRE-luc reporter in transfected CV-1 cells
Settings: CV-1 cells transfected with hFXR, hRXR, 18 h incubation, luminescence
In this section we review reported EC50 values for a set of compounds.

The compound `COC(=O)/C=C/c1cccc(N(Cc2ccc(-c3ccc(N(C)C)nn3)cc2)C(=O)C2CCCCC2)c1` on FXR (Homo sapiens, UniProt Q96RI1): EC50 was 1 to 10 µM

The compound `COC(=O)/C=C/c1cccc(N(Cc2ccccc2-c2ccccc2)C(=O)C2CCCCC2)c1` on FXR (Homo sapiens, UniProt Q96RI1): EC50 was > 10 µM

The compound `CCCC(=O)N(Cc1ccc(-c2ccc(N(C)C)cc2)cc1)c1cccc(/C=C/C(=O)OC)c1` on FXR (Homo sapiens, UniProt Q96RI1): EC50 was 1 to 10 µM

Moving on to another compound below.
The compound `COC(=O)/C=C/c1cccc(N(Cc2ccc(-c3ccc(N(C)C)cc3)cc2)C(=O)C(C)(C)CCl)c1` on FXR (Homo sapiens, UniProt Q96RI1): EC50 was ≤ 1 µM
